experiment: Measurement of logP values by HPLC on reversed phase columns (EEC directive 79/831 Annex V.A8); assay type: physicochemical; details: reversed phase HPLC columns; method [a]: LC-MS at pH 2.7, 0,1% formic acid in water / acetonitrile, gradient 10% to 95% acetonitrile; amines of formula (III-a); read-out: LogP^[a]
property: chromatographic logP

compound: CC1(C)CCc2c(N)cccc2C1 [III-a-3]
property: chromatographic logP
numericReadout: 1.88

* * *

Parameter chromatographic logP: see the listing below.
experiment: Measurement of logP values by HPLC on reversed phase columns (EEC directive 79/831 Annex V.A8); assay type: physicochemical; details: pH 2.7

smilesRepr: C=C1c2c(cccc2NC(=O)c2cn(C)nc2C(F)F)CCC1(C)C
chromatographic logP: 2.31
--
smilesRepr: Cc1nn(C)c(F)c1C(=O)Nc1cccc2c1CCCC2(C)C
chromatographic logP: 3.23
--
smilesRepr: Cc1nc(C(F)F)c(C(=S)Nc2cccc3c2CCC(C)(C)C3)s1
chromatographic logP: 4.16

* * *

# LogP[a] values compiled below
assay: Measurement of logP values by HPLC on reversed phase columns (EEC directive 79/831 Annex V.A8); format: physicochemical; settings: method [a], HPLC on reversed phase columns
property: LogP[a]

molecule: CCCC1CCc2c(NC(=O)c3cn(C)nc3C(F)F)cccc2C1C (mixture of isomers)
result: 4.18^[a]
//
molecule: CC(C)C1CCCc2c(NC(=O)c3cn(C)nc3C(F)F)cccc21 (stereo not shown)
result: 3.73^[a]
//
molecule: CC(C)C1CCCc2c(NC(=O)c3cn(C)nc3C(F)(F)F)cccc21 (stereo not shown)
result: 3.96^[a]
//
molecule: CC1(C)CCc2c(cccc2NC(=S)c2ccoc2C(F)F)C1
result: 4.39^[a]

* * *

assay: Measurement of logP values by HPLC on reversed phase columns (EEC directive 79/831 Annex V.A8); type: physicochemical; conditions: method [a]
Each record here notes measured LogP^[a].

compound: CC1(C)CCCc2c(NC(=O)c3nccnc3C(F)(F)F)ccc(F)c21
LogP^[a]: 3.96^[a]
//
compound: Cc1oc(C)c(C(=O)Nc2ccc(F)c3c2CCCC3(C)C)c1C
LogP^[a]: 4.51^[a]
//
compound: CON=C1CCCc2c(NC(=O)c3c(C(F)(F)F)nn(C)c3F)cccc21
LogP^[a]: 3.11^[a]
//
compound: CC1(C)CCc2c(cccc2NC(=O)c2ccsc2I)C1
LogP^[a]: 4.34^[a]
//
compound: C=C1c2cccc(NC(=O)c3cn(C)nc3C(F)F)c2CCC1(C)C
LogP^[a]: 3.48^[a]
//
compound: CCON=C1CCCc2c(NC(=O)c3ccoc3C(F)F)cccc21
LogP^[a]: 3.68^[a]
//
compound: CCON=C1CCCc2c(NC(=O)c3nccnc3I)cccc21
LogP^[a]: 3.44^[a]
//
compound: CON=C1CCCc2c(NC(=O)c3ccoc3C(F)F)cccc21
LogP^[a]: 3.25^[a]
//
compound: CCON=C1CCCc2c(NC(=O)c3c(C)nn(C)c3C)cccc21
LogP^[a]: 2.58^[a]
//
compound: Cc1nn(C)c(F)c1C(=O)Nc1cccc2c1CCC(C)C2C (mixture of isomers)
LogP^[a]: 3.41^[a]
//
compound: C=C1c2cccc(NC(=O)c3sc(C)nc3C(F)F)c2CCC1(C)C
LogP^[a]: 3.87^[a]
//
compound: CC1(C)CCc2c(cccc2NC(=O)c2ccoc2C(F)F)C1
LogP^[a]: 4.06^[a]
//
compound: Cc1nc(C(F)F)c(C(=O)Nc2cccc3c2CCC(C)(C)C3C)s1 (racemic)
LogP^[a]: 4.09^[a]
//
compound: CC1CCc2cccc(NC(=O)c3cn(C)nc3C(F)F)c2C1C (mixture of isomers)
LogP^[a]: 3.21^[a]
//
compound: CCc1nc(C)sc1C(=O)Nc1cccc2c1CCC(C)C2C (mixture of isomers)
LogP^[a]: 3.87^[a]
//
compound: CC1c2c(cccc2NC(=O)c2cn(C)nc2C(F)F)CCC1(C)C (stereo not shown)
LogP^[a]: 3.51^[a]
//
compound: CCON=C1CCCc2c(NC(=O)c3sc(C)nc3CC)cccc21
LogP^[a]: 3.37^[a]
//
compound: Cn1nc(C(F)(F)F)c(C(=O)Nc2cccc3c2CCC(C)(C)C3)c1F
LogP^[a]: 3.99^[a]
//
compound: Cc1nn(C)c(C)c1C(=O)Nc1cccc2c1CCC(C)(C)C2C (racemic)
LogP^[a]: 3.25^[a]

* * *

Listed here are compounds together with their documented LogP^[a].
assay: Measurement of logP values by HPLC on reversed phase columns (EEC directive 79/831 Annex V.A8); assay type: physicochemical; conditions: method [a]

compound: Cc1nn(C)c(C)c1C(=O)Nc1cccc2c1CC(C)(C)CC2
LogP^[a]: 2.90^[a]
//
compound: Cn1cc(C(=O)Nc2cccc3c2CCC(C)(C)C3)c(C(F)F)n1
LogP^[a]: 3.35^[a]
//
compound: CCON=C1CCCc2c(NC(=O)c3sc(C)nc3C(F)F)cccc21
LogP^[a]: 3.37^[a]
//
compound: CC1(C)CCCc2c(NC(=O)c3ccsc3I)ccc(F)c21
LogP^[a]: 4.29^[a]
//
compound: CC1(C)CCc2c(cccc2NC(=O)C2=C(C(F)(F)F)OCCS2)C1
LogP^[a]: 3.99^[a]
//
compound: CON=C1CCCc2c(NC(=O)c3nccnc3C(F)(F)F)cccc21
LogP^[a]: 3.08^[a]
//
compound: CCON=C1CCCc2c(NC(=S)c3ccoc3C(F)F)cccc21
LogP^[a]: 4.11^[a]
//
compound: CC1(C)CCCc2c(NC(=O)c3nccnc3I)ccc(F)c21
LogP^[a]: 3.92^[a]
//
compound: CC1CCc2c(NC(=O)c3cn(C)nc3C(F)F)cccc2C1C (mixture of isomers)
LogP^[a]: 3.37^[a]
//
compound: CON=C1CCCc2c(NC(=O)c3c(C)nn(C)c3F)cccc21
LogP^[a]: 2.47^[a]
//
compound: CON=C1CCCc2c(NC(=O)c3sc(C)nc3C(F)F)cccc21
LogP^[a]: 2.92^[a]
//
compound: CCc1nc(C)sc1C(=O)Nc1cccc2c1CCC(C)(C)C2
LogP^[a]: 3.87^[a]
//
compound: CC1(C)CCCc2c(NC(=O)C3=C(C(F)(F)F)OCCS3)ccc(F)c21
LogP^[a]: 4.01^[a]
//
compound: CON=C1CCCc2c(NC(=O)c3ccsc3I)cccc21
LogP^[a]: 3.37^[a]
//
compound: CCc1nc(C)sc1C(=O)Nc1cccc2c1CCCC2=NOC
LogP^[a]: 3.02^[a]
//
compound: CCON=C1CCCc2c(NC(=O)c3ccsc3Br)cccc21
LogP^[a]: 3.87^[a]
//
compound: Cc1nn(C)c(F)c1C(=O)Nc1cccc2c1CCCC2(C)C
LogP^[a]: 3.35^[a]
//
compound: CC1CCc2cccc(NC(=O)c3cn(C)nc3C(F)F)c2C1(C)O (racemic)
LogP^[a]: 3.96^[a]
//
compound: CCON=C1CCCc2c(NC(=O)c3cn(C)nc3C(F)F)cccc21
LogP^[a]: 2.96^[a]
//
compound: CON=C1CCCc2c(NC(=O)c3ccsc3Br)cccc21
LogP^[a]: 3.37^[a]

* * *

Below is a list of entries, each paired with its recorded LogP^[a] value.
test: Measurement of logP values by HPLC on reversed phase columns (EEC directive 79/831 Annex V.A8); type: physicochemical; conditions: method [a]
property: LogP^[a]

compound: Cn1cc(C(=O)Nc2cccc3c2CCCC3)c(C(F)F)n1
result: 2.68^[a]
--
compound: CCc1nc(C)sc1C(=O)Nc1cccc2c1CC(C)(C)CC2
result: 3.79^[a]
--
compound: CC1CCc2c(NC(=O)c3cn(C)nc3C(F)F)cccc2C1(C)C (racemic)
result: 3.60^[a]
--
compound: CON=C1CCCc2c(NC(=O)C3=C(C(F)(F)F)OCCS3)cccc21
result: 3.21^[a]
--
compound: CC1(C)CCc2c(cccc2NC(=O)c2ccsc2Br)C1
result: 4.41^[a]
--
compound: Cc1nn(C)c(C)c1C(=O)Nc1cccc2c1CCC(C)C2C (mixture of isomers)
result: 3.00^[a]
--
compound: CON=C1CCCc2c(NC(=O)c3c(C)nn(C)c3C)cccc21
result: 2.17^[a]
--
compound: CCCC1(C)CCCc2c(NC(=O)c3cn(C)nc3C(F)F)cccc21 (centres unmarked)
result: 4.08^[a]
--
compound: Cc1oc(C)c(C(=O)Nc2cccc3c2CCC(C)(C)C3)c1C
result: 4.59^[a]
--
compound: Cn1cc(C(=O)Nc2cccc3c2CC(C)(C)CC3)c(C(F)F)n1
result: 3.25^[a]
--
compound: CCc1nc(C)sc1C(=O)Nc1ccc(F)c2c1CCCC2(C)C
result: 3.85^[a]
--
compound: CCC1(CC)CCCc2c(NC(=O)c3cn(C)nc3C(F)F)cccc21
result: 4.03^[a]
--
compound: Cn1cc(C(=O)Nc2cccc3c2CCCC3)c(C(F)(F)F)n1
result: 2.92^[a]
--
compound: Cn1cc(C(=S)Nc2ccc(F)c3c2CCCC3(C)C)c(C(F)F)n1
result: 3.87^[a]
--
compound: CCc1nc(C)sc1C(=O)Nc1cccc2c1CCC(C)(C)C2C (racemic)
result: 4.19^[a]
--
compound: CON=C1CCCc2c(NC(=O)c3c(C)oc(C)c3C)cccc21
result: 3.55^[a]
--
compound: Cn1cc(C(=O)Nc2cccc3c2C(C)(C)CCC3)c(C(F)F)n1
result: 2.99^[a]
--
compound: CCON=C1CCCc2c(NC(=O)C3=C(C(F)(F)F)OCCS3)cccc21
result: 3.63^[a]
--
compound: CON=C1CCCc2c(NC(=O)c3cn(C)nc3C(F)F)cccc21
result: 2.56^[a]
--
compound: CC1CCC(C)(C)c2cccc(NC(=O)c3cn(C)nc3C(F)F)c21 (racemic)
result: 3.44^[a]
--
compound: Cc1nc(C(F)F)c(C(=O)Nc2cccc3c2CCC(C)(C)C3)s1
result: 3.81^[a]
--
compound: Cc1nc(C(F)F)c(C(=O)Nc2cccc3c2CC(C)(C)CC3)s1
result: 3.72^[a]
--
compound: CC1(C)CCCc2c(NC(=O)c3ccoc3C(F)F)ccc(F)c21
result: 4.06^[a]
--
compound: CC1(C)CCc2c(cccc2NC(=O)c2nccnc2C(F)(F)F)C1
result: 3.99^[a]
--
compound: Cn1cc(C(=O)Nc2cccc3c2CCC(C)(C)C3=O)c(C(F)F)n1
result: 2.40^[a]
--
compound: Cc1nc(C(F)F)c(C(=O)Nc2cccc3c2CCCC3(C)C)s1
result: 3.64^[a]
--
compound: CCc1nc(C)sc1C(=O)Nc1cccc2c1CCC(C)(C)C2=O
result: 2.71^[a]
--
compound: Cc1nn(C)c(F)c1C(=O)Nc1cccc2c1CCC(C)(C)C2C (racemic)
result: 3.70^[a]
--
compound: Cc1nc(C(F)F)c(C(=O)Nc2cccc3c2CCC(C)(C)C3=O)s1
result: 2.73^[a]
--
compound: Cc1nn(C)c(F)c1C(=O)Nc1cccc2c1CCC(C)(C)C2=O
result: 2.28^[a]
--
compound: Cc1nc(C(F)F)c(C(=O)Nc2ccc(F)c3c2CCCC3(C)C)s1
result: 3.79^[a]
--
compound: Cc1nn(C)c(C)c1C(=O)Nc1cccc2c1CCC(C)(C)C2
result: 2.94^[a]
--
compound: Cn1cc(C(=O)Nc2cccc3c2CCCC3(C)C)c(C(F)F)n1 [Example 60]
result: 3.39^[a]
--
compound: CON=C1CCCc2c(NC(=S)c3ccoc3C(F)F)cccc21
result: 3.70^[a]
--
compound: CCON=C1CCCc2c(NC(=S)c3nccnc3C(F)(F)F)cccc21
result: 3.83^[a]
--
compound: CCON=C1CCCc2c(NC(=O)c3nccnc3C(F)(F)F)cccc21
result: 3.55^[a]
--
compound: Cc1nn(C)c(C)c1C(=O)Nc1cccc2c1CCC(C)(C)C2=O
result: 2.04^[a]
--
compound: Cc1nn(C)c(C)c1C(=O)Nc1ccc(F)c2c1CCCC2(C)C
result: 2.98^[a]
